tested on: NCI-H226 lung; assay: NCI-60 one-dose screen, 48 h; conditions: 10 µM unless noted
This is part of a sample that, as a whole, favours compounds with a hit. Of some 83,000 tested, about 20% had one in any assay. Calls of active or inactive are those of the source. The calls were made as follows: active = growth percent below 10; inactive = the rest.
Your response should consist of one outcome taken from active, inactive

Please share the test call associated with `O=C(NCCCCCCNC(=O)c1c2c(nc3ccccc13)-c1cccnc1SC2)c1c2c(nc3ccccc13)-c1cccnc1SC2` .
inactive

Also, `N#C/C(=C\c1ccc2ccccc2c1)C(=O)Nc1sc2c(c1C#N)CCC2` please.
inactive

Also, `CN(C)c1ncc(/C=C2\SC(=S)N(Cc3ccccc3Cl)C2=O)s1` please.
inactive

Also, `CC(C)SC1=NC(=C(C(=N1)NC2=ClC=CC=C2)C#N)C3=CC=CC=C3` please.
inactive

* * *

system: SF-539 CNS; assay: NCI-60 one-dose screen, 48 h (100 = growth as untreated, 0 = no growth, -100 = all killed); details: 10 µM unless noted
This is part of a sample that, as a whole, favours compounds with a hit. Of some 83,000 tested, about 20% had one in any assay.
Measured Quantity: growth (%)
Respond with the bare value in %.

So what's the measured growth for this one? `Oc1ccc(CSc2nnc(-c3cnccn3)n2-c2ccccc2)c2cccnc12`
22.7

Also, `CC(C)=CCc1c(O)c(CC=C(C)C)c2c(c1O)C(=O)C1=C[C@@H]3C[C@H]4C(C)(C)O[C@@](C/C=C(\C)C(=O)O)(C3=O)[C@@]14O2` please.
-77.5

Also, `C#CCOc1ccc(/C=N/Nc2nc(-c3cc4cc(Br)cc(Br)c4oc3=O)cs2)cc1` please.
84.4

Also, `COc1ccc(Cn2cc3c(c2-c2ccccc2)CCCc2cnoc2-3)cc1[N+](=O)[O-]` please.
70.5

Also, `COc1ccc(-c2cc(-c3cccc4ccccc34)n3c(n2)nc2ccccc23)cc1OC` please.
31.1

Also, `C=C1C(=O)O[C@@H]2C[C@@H](C)[C@H](OC)CC(=O)[C@](C)(OC(C)=O)C[C@H](OC(=O)/C(C)=C\C)[C@@H]12` please.
71.4

Others:
So what's the measured growth for this one? `COc1cc(C(=O)c2cc(C(C)=O)c3c4ccccc4ccn23)cc(OC)c1OC`
75.3

Also, `COc1ccc2c(c1)oc1c3[nH]c4ccccc4c3c3c(c21)C(=O)N(O)C3=O` please.
28.9

Also, `COc1cccc(/C=C/C(=O)c2ccc(NC(=O)COc3cccc4cccnc34)cc2)c1` please.
101

* * *

System: BT-549 breast
Assay: NCI-60 one-dose screen, 48 h
Details: 10 µM unless noted
Protocol: Growth inhibition of the BT-549 human tumor cell line is measured as a screen for anti-cancer activity. Cells are grown in 96 well plates and exposed to the test compound for 48 hours. Compounds are tested at a single concentration, which is 10^-5 M for most compounds. The reported endpoint is percent growth (GI% or GIPRCNT), where numbers from 0 - 100% represent growth inhibition, and numbers from -100% - 0 represent cell death. For example, a value of 40 represents 60% growth inhibition. […]
This is part of a sample that, as a whole, favours compounds with a hit. Of some 83,000 tested, about 20% had one in any assay. The source made the active and inactive calls. Rule for the calls: active = growth percent below 10; inactive = the rest.
Your response should consist of one outcome taken from active, inactive

Please share the test call associated with `O=C(COc1ccc(/C=C2\SC(=O)NC2=O)cc1)Nc1ccc(C(=O)/C=C/c2cc3ccccc3nc2Cl)cc1` .
inactive

Also, `COc1ccc([C@H]2[C@H](O)C(=O)N2c2cc(OC)c(OC)c(OC)c2)cc1` please.
active

Also, `COc1ccc(/C=N\NC(=O)c2ccc3nc(-c4ccc(Br)cc4)[nH]c3c2)cc1` please.
inactive

Also, `COc1ccc(-c2nc(SCCC(C)C)nc(N/N=C\c3ccc(O)cc3)c2C#N)cc1` please.
inactive

Also, `COc1cc(-c2noc(C[C@@H](NC(=O)OCc3ccccc3)C(C)C)n2)cc(OC)c1OC` please.
inactive

Others:
Please share the test call associated with `C/C(=C(/c1ccc(O)cc1)c1ccc(OCCN2CCCCCC2)cc1)c1ccccc1` .
inactive

Also, CCCC(=O)NC(c1cccnc1)c1cc(C(C)=O)c2cccnc2c1O (stereo not drawn) please.
inactive

Also, `C#C[C@]1(O)CC[C@H]2[C@@H]3CC=C4c5sc(C6CCOCC6)nc5CC[C@]4(C)[C@H]3CC[C@@]21C` please.
inactive

Also, `Oc1ccccc1/C=N/Nc1nc(N/N=C/c2ccccc2O)nc(N2CCOCC2)n1` please.
inactive

Also, `COc1cc(/C=C/C(=O)c2ccc(NC(=O)CSc3nnc(-c4ccc5nc(-c6ccccc6)[nH]c5c4)o3)cc2)cc(OC)c1OC` please.
inactive

Also, `O=S(=O)(Nc1cc(Cl)cc(Cl)c1)c1ccc(-c2cnc(C3CC3)o2)cc1` please.
inactive

Also, `Cc1ccc(-n2cc(/C=C/C(=O)c3ccc(S(C)(=O)=O)cc3)c(-c3ccc(S(C)(=O)=O)cc3)n2)cc1` please.
inactive
